Attribution: PubChem BioAssay AID1195

Let's look at some compounds and their measured maximum recommended daily dose (mmol/kg-bw/day).
# Tested on: human maximum recommended daily dose, FDA database
# Run Description: DSSTox (FDAMDD) FDA Maximum (Recommended) Daily Dose Database
# Condition Details: TherapeuticCategory: antiemetic; hits give low values
Enter a number only.

| Compound | Reported Measurement |
| --- | --- |
| NC(=O)C1CCN(CCCN2c3ccccc3Sc3ccc(Cl)cc32)CC1 | 0.000622 |
| CCSc1ccc2c(c1)N(CCCN1CCN(C)CC1)c1ccccc1S2 | 0.00125 |
| CCCCCCC(C)(C)c1cc(O)c2c(c1)OC(C)(C)[C@@H]1CCC(=O)C[C@@H]21 | 0.000268 |
| OC(CCCN1CCCCC1)(c1ccccc1)c1ccccc1 | 0.0162 |
| COc1cc(C(=O)NCc2ccc(OCCN(C)C)cc2)cc(OC)c1OC | 0.043 |

Turning now to a further compound:
Would you kindly share the measured maximum recommended daily dose (mmol/kg-bw/day) for Cc1nccn1CC1CCc2c(c3ccccc3n2C)C1=O (stereo unspecified) ? 0.00136

###

# Tested on: human maximum recommended daily dose, FDA database
# Run Description: DSSTox (FDAMDD) FDA Maximum (Recommended) Daily Dose Database
# Condition Details: TherapeuticCategory: antianginal; antiarrhythmic; antihypertensive; hits give low values
Observable: maximum recommended daily dose (mmol/kg-bw/day)
Quick one: just the number, no unit, thanks!

Look at this molecule and give its reported maximum recommended daily dose (mmol/kg-bw/day). CC(C)NCC(O)c1ccc(NS(C)(=O)=O)cc1 (stereo unspecified) 0.0196

###

# System: human maximum recommended daily dose, FDA database
# Run Description: DSSTox (FDAMDD) FDA Maximum (Recommended) Daily Dose Database
# Condition Details: TherapeuticCategory: antiurolithic; antibacterial adjunct; hits give low values
Observable: maximum recommended daily dose (mmol/kg-bw/day)
Keep the answer to the number alone.

Field request: maximum recommended daily dose (mmol/kg-bw/day) | item: CC(=O)NO 0.222

###

# System: human maximum recommended daily dose, FDA database
# Run Description: DSSTox (FDAMDD) FDA Maximum (Recommended) Daily Dose Database
# Condition Details: TherapeuticCategory: antibacterial; hits give low values
Form field: maximum recommended daily dose (mmol/kg-bw/day) (one value per entry).

Check out these entries, answers already filled in.
| Molecule | Reported Measurement |
| --- | --- |
| Cc1nnc(NS(=O)(=O)c2ccc(N)cc2)s1 | 0.247 |
| CC1=C(C(=O)O)N2C(=O)[C@@H](NC(=O)[C@H](N)C3=CCC=CC3)[C@H]2SC1 | 0.191 |
| NC(Cc1ccccc1)C(=O)O (stereo not drawn) | 0.605 |
| COc1cc(Cc2cnc(N)nc2N)cc(OC)c1OC | 0.0184 |

If you can, please state the reported maximum recommended daily dose (mmol/kg-bw/day) value of NC[C@H]1O[C@H](O[C@H]2[C@H](O)[C@@H](O[C@H]3O[C@H](CO)[C@@H](O)[C@H](N)[C@H]3O)[C@H](N)C[C@@H]2N)[C@H](O)[C@@H](O)[C@@H]1O . 0.031

Request the reported maximum recommended daily dose (mmol/kg-bw/day) associated with C[C@H]1[C@H](NC(=O)/C(=N\OC(C)(C)C(=O)O)c2csc(N)n2)C(=O)N1S(=O)(=O)O 0.305

###

# Tested on: human maximum recommended daily dose, FDA database
# Run Description: DSSTox (FDAMDD) FDA Maximum (Recommended) Daily Dose Database
# Condition Details: TherapeuticCategory: anthiarrythmic; hits give low values
# Description: The Food and Drug Administration (FDA) Center for Drug Evaluation and Research, Office of Pharmaceutical Science, Informatics and Computational Safety Analysis Staff's Maximum Recommended Daily Dose (FDAMDD) database contains values for over 1200 pharmaceuticals listed in Martindale: The Extra Pharmacopoeia (1973, 1983, and 1993) and The Physicians' Desk Reference (1995 and 1999). […]
Observable: maximum recommended daily dose (mmol/kg-bw/day)
Respond with the number and no other words.

Please give the measured maximum recommended daily dose (mmol/kg-bw/day) for this compound: C=C[C@H]1CN2CC[C@H]1C[C@@H]2[C@@H](O)c1ccnc2ccc(OC)cc12 0.0308

###

# Tested on: human maximum recommended daily dose, FDA database
# Run Description: DSSTox (FDAMDD) FDA Maximum (Recommended) Daily Dose Database
# Condition Details: TherapeuticCategory: antiperistaltic; antidiarrheal; hits give low values
Observable: maximum recommended daily dose (mmol/kg-bw/day)

| Line Notation | Reported Measurement |
| --- | --- |
| CCOC(=O)C1(c2ccccc2)CCN(CCC(C#N)(c2ccccc2)c2ccccc2)CC1 | 0.000736 |

Attention now shifts to the item below.
I have this molecule here, N#CC(CCN1CCC(C(=O)O)(c2ccccc2)CC1)(c1ccccc1)c1ccccc1 , and I need its recorded maximum recommended daily dose (mmol/kg-bw/day). 0.000313

###

# Tested on: human maximum recommended daily dose, FDA database
# Run Description: DSSTox (FDAMDD) FDA Maximum (Recommended) Daily Dose Database
# Condition Details: TherapeuticCategory: sedative; hypnotic; anticonvulsant; hits give low values
Observable: maximum recommended daily dose (mmol/kg-bw/day)

human maximum recommended daily dose, FDA database / maximum recommended daily dose (mmol/kg-bw/day) / Cc1ncsc1CCCl : value? 0.0396

###

Reported maximum recommended daily dose (mmol/kg-bw/day) is given for each of the following compounds.
# Test system: human maximum recommended daily dose, FDA database
# Run Description: DSSTox (FDAMDD) FDA Maximum (Recommended) Daily Dose Database
# Condition Details: TherapeuticCategory: local anesthetic; hits give low values

Need maximum recommended daily dose (mmol/kg-bw/day) of CCN(CC)CCOC(=O)c1ccc(N)cc1Cl , thanks. 0.0308

Would you mind telling me what maximum recommended daily dose (mmol/kg-bw/day) value was observed for CCCN(CC)C(CC)C(=O)Nc1c(C)cccc1C (centres undefined) ? 0.0241

Need maximum recommended daily dose (mmol/kg-bw/day) of CCCCN1CCCCC1C(=O)Nc1c(C)cccc1C (centres undefined) , thanks. 0.013

# input compound: Cc1cccc(C)c1NC(=O)C1CCCCN1C (centres undefined) ; wanted: its maximum recommended daily dose (mmol/kg-bw/day) 0.0271

###

# System: human maximum recommended daily dose, FDA database
# Run Description: DSSTox (FDAMDD) FDA Maximum (Recommended) Daily Dose Database
# Condition Details: TherapeuticCategory: neuroleptic; hits give low values
# Source text: The Food and Drug Administration (FDA) Center for Drug Evaluation and Research, Office of Pharmaceutical Science, Informatics and Computational Safety Analysis Staff's Maximum Recommended Daily Dose (FDAMDD) database contains values for over 1200 pharmaceuticals listed in Martindale: The Extra Pharmacopoeia (1973, 1983, and 1993) and The Physicians' Desk Reference (1995 and 1999). […]
Observable: maximum recommended daily dose (mmol/kg-bw/day)
Simply state the number, no unit and no words.

Which measured maximum recommended daily dose (mmol/kg-bw/day) value corresponds to CC1CCN(CCCC(=O)c2ccc(F)cc2)CC1 ? 0.0253

###

# System: human maximum recommended daily dose, FDA database
# Run Description: DSSTox (FDAMDD) FDA Maximum (Recommended) Daily Dose Database
# Condition Details: TherapeuticCategory: antihistaminic; peripheral vasodilator; hits give low values
Observable: maximum recommended daily dose (mmol/kg-bw/day)
Kindly provide the number alone.

State the recorded maximum recommended daily dose (mmol/kg-bw/day) for this entry: C(=C\c1ccccc1)/CN1CCN(C(c2ccccc2)c2ccccc2)CC1 0.0102

###

# System: human maximum recommended daily dose, FDA database
# Run Description: DSSTox (FDAMDD) FDA Maximum (Recommended) Daily Dose Database
# Condition Details: TherapeuticCategory: antihistaminic; hits give low values
# From the text: The Food and Drug Administration (FDA) Center for Drug Evaluation and Research, Office of Pharmaceutical Science, Informatics and Computational Safety Analysis Staff's Maximum Recommended Daily Dose (FDAMDD) database contains values for over 1200 pharmaceuticals listed in Martindale: The Extra Pharmacopoeia (1973, 1983, and 1993) and The Physicians' Desk Reference (1995 and 1999). […]
# strict inequality: maximum recommended daily dose (mmol/kg-bw/day) < 0.002 yields met, everything else yields not met

| Molecule | Label Class |
| --- | --- |
| CN(C)CC[C@@H](c1ccc(Br)cc1)c1ccccn1 | not met |
| CN(C)CCOc1ccccc1Cc1ccccc1 | not met |
| CN(C)CCOC(c1ccccc1)c1ccccc1 | not met |
| CN(C)CCOC(c1ccccc1)c1ccc(Br)cc1 (stereo unspecified) | not met |
| CCOC(=O)N1CCC(=C2c3ccc(Cl)cc3CCc3cccnc32)CC1 | met |

We now examine a further molecule.
API: query returns whether the molecule falls strictly under 0.002 in maximum recommended daily dose (mmol/kg-bw/day). Query: Cc1ccc(/C(=C\CN2CCCC2)c2cccc(/C=C/C(=O)O)n2)cc1 met

###

# Tested on: human maximum recommended daily dose, FDA database
# Run Description: DSSTox (FDAMDD) FDA Maximum (Recommended) Daily Dose Database
# Condition Details: TherapeuticCategory: diagnostic aid; hepatic function; hits give low values
Observable: maximum recommended daily dose (mmol/kg-bw/day)
Output: the number by itself.

So what does the record say about maximum recommended daily dose (mmol/kg-bw/day) for OC[C@H]1OC(O)[C@H](O)[C@@H](O)[C@H]1O (stereo partly specified) ? 0.555
